target-entity: T1, Copenhagen B5 on cells infected with VVCopenhagen (YFP) virus (Vaccinia virus, Copenhagen strain, UniProt P21115 18-317)
T1 construct: also called VV B5
protocol-description: flow cytometry, HT29 cells infected with Copenhagen VV
reported-metric: pEC50
Notebook: values listed as pEC50 are -log10 of the concentration (mol/L).

GET /values?readout=pEC50&item= A048-H2L2 (antibody, V domains shown) VH: EVQLLESGGGLVQPGGSLRLSCAASGFSFSSSYYMCWVRQAPGKGLEWIACIYTSSGSAYYANWAKGRFTISRTSSTTVTLQMNSLRAEDTAVYYCVRNAVGSSYYLYLWGQGTLVTVSS VL: AQVLTQSPSTLSASVGDRVTITCQASQSVAGNNYLSWYQQKPGKAPKLLIYSVSTLASGVPSRFSGSGSGTEFTLTISSLQPDDFATYYCQGYYNDGIWAFGQGTKVEIK 8.89

For the binder shown here, A048 parental (antibody, V domains shown, also called A048 rabbit parental antibody; A048 parental anti-B5 hIgG1) VH: QEQLEESGGGLVKPEGSLTLTCTASGFSFSSSYYMCWVRQAPGRGLEWIACIYTSSGSAYYANWAKGRFTISRTSSTTVTLQMTRLTAADTATYFCVRNAVGSSYYLYLWGPGTLVTVSS VL: AQVLTQTPSPVSAAVGGTVTISCQASQSVAGNNYLSWYQQKPGQPPNLLIYSVSTLASGVPSRFKGSGSGTQFTLTISDLECDDAATYYCQGYYNDGIWAFGGGTEVVVK , give the reported pEC50. 8.97

What does the data say about its pEC50? Entry: A048-H4L4 (antibody, V domains shown) VH: EVQLLESGGGLVQPGGSLRLSCAASGFSFSSSYYMCWVRQAPGKGLEWIACIYTSSGSAYYADSVKGRFTISRTSSTTVTLQMNSLRAEDTAVYYCVRNAVGSSYYLYLWGQGTLVTVSS VL: AQVLTQSPSSLSASVGDRVTITCQASQSVAGNNYLSWYQQKPGKVPKLLIYSVSTLASGVPSRFSGSGSGTDFTLTISSLQPEDVATYYCQGYYNDGIWAFGQGTKVEIK 8.88

For A048-H3L3 (antibody, V domains shown) VH: EVQLLESGGGLVQPGGSLRLSCAASGFSFSSSYYMCWVRQAPGKGLEWIACIYTSSGSAYYADSVKGRFTISRDNSKNTLYLQMNSLRAEDTAVYYCVRNAVGSSYYLYLWGQGTLVTVSS VL: DIQMTQSPSSLSASVGDRVTITCQASQSVAGNNYLSWYQQKPGKVPKLLIYSVSTLASGVPSRFSGSGSGTDFTLTISSLQPEDVATYYCQGYYNDGIWAFGQGTKVEIK , what is its reported pEC50? 8.99

Entry A048-H3L1 (antibody, V domains shown) VH: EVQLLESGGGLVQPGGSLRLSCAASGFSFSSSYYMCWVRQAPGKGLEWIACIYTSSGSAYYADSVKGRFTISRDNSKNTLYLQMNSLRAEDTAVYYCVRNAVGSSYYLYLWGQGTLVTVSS VL: DIQMTQSPSTLSASVGDRVTITCQASQSVAGNNYLSWYQQKPGKAPKLLIYSVSTLASGVPSRFSGSGSGTEFTLTISSLQPDDFATYYCQGYYNDGIWAFGQGTKVEIK : reported pEC50 = ? 9.05

Return reported pEC50; argument: A048-H1L4 (antibody, V domains shown) VH: EVQLLESGGGLVQPGGSLRLSCAASGFSFSSSYYMCWVRQAPGKGLEWIACIYTSSGSAYYANWAKGRFTISRDNSKNTLYLQMNSLRAEDTAVYYCVRNAVGSSYYLYLWGQGTLVTVSS VL: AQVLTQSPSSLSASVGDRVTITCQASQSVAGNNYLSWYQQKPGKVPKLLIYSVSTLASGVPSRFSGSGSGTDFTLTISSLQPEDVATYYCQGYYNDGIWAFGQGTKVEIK 9.01
